Target: T1, 4H2610-bA
T1 chain: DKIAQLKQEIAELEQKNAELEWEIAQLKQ
Experiment: two-hybrid library CCNG1;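 also: natural log of median RNA to DNA barcode read ratio; higher means stronger binding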
READOUT_KIND: interaction score

{"BINDER": "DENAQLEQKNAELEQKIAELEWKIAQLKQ [4H1446-bA]", "interaction score": -0.647}
{"BINDER": "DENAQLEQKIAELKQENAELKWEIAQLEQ [4H1369-bA]", "interaction score": -0.708}
{"BINDER": "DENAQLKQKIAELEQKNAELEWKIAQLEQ [4H1845-bA]", "interaction score": -0.596}
{"BINDER": "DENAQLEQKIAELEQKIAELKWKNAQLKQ [4H1328-bA]", "interaction score": -0.633}

(I) DKIAQLKQEIAELEQKNAELEWEIAQLKQ [4H2610-bA]
(II) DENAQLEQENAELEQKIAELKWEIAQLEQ [4H1193-bA]
(III) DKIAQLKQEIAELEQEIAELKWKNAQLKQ [4H2576-bA]
Please produce an ascending ranking of these binders based on interaction score. Response format: the labels, sorted as the prompt asks.
II, I, III

Hey, just so you know, these numbers are from paper PMC10397247.
